# test.description: yeast display, Sf9 membrane polyspecificity reagent, FACS + sequencing; frameworks hold sequencing errors
measured.parameter: polyreactivity (PSR sort gate)

The following sequences have reported results that may help.
{"biosequence": "QVQLVESGGGLVQAGGSLRLTCAASGSIFDSNAMGWYRQAPGKERELVADIRGIGGSTFYADSVKWRFTISRDNAKNTVYLQMNSLKPEDTAVYYCAAVGKSPSRFGYWGQGTQVTVSS", "polyreactivity (PSR sort gate)": "low polyreactivity"}
{"biosequence": "QVQHVESGGGLVQAGGSLRLSCAASGSIFIANAMGWYRQAPGKERELVAVINWGDGSTYADSVKGRFTISRDNAKNTVYLQMNSLKPEDTAVYYCNAPDEVNDVRYDYWGQGTQVTVSS", "polyreactivity (PSR sort gate)": "low polyreactivity"}
{"biosequence": "QVQLVESGGGLVQAGGSLRLSCAASGIIFRDYGMGWSRQAPGKEREFVATITYSGGGTYYADSVKGRFTISRDKAKNTVYLQMNSLKPEDTAVYYCAAYPFYYDLAYDYWGQGTQVTVSS", "polyreactivity (PSR sort gate)": "low polyreactivity"}
{"biosequence": "QVQLVESGGGLVQAGGSLRLSCAASGFTFFYNAMGWYRQAPGKEREFVAAISGRGGTTYYADSVKGRFTISRDNAKNTVYLQMNSLKPEDTAVYYCNAGSSPIRQYYGQVWKKGGYWGQGTQVTVSS", "polyreactivity (PSR sort gate)": "high polyreactivity"}
{"biosequence": "QVHLVESGGGLVQAGGSLRLSWAASGSILRQYAMGWYRQAPGKERELVATITGDGSTNYADSVKGRFTISRDNAKNTVYLQMNSLKPQDTAVYYCITDLTYPNPNVEVMVYGFKLDYWGQGTQVTVSS", "polyreactivity (PSR sort gate)": "low polyreactivity"}
{"biosequence": "QVQLVESGGGLVQAGGSLRLSCAASGITFYRYTMGWYRQAPGKERELVAAIRSAGSTYYADSVKGRFTISRDNAKNTVYLQMNSLKPEDTAVYYCAATYYRYNVPYYGGNGGDYWGQGTQVTVSS", "polyreactivity (PSR sort gate)": "high polyreactivity"}

Proceed to the following item.
Need polyreactivity (PSR sort gate) of QVQLVDSGGGLVQAGGRLRLSCAASGFIIDWNTKGWYRQAPGKERELVAAITESSGSTYYADSVKGRFTISRDNAKNTVYLLMNSLKPVDTAVYYCGAELDVSVCFVSRFHFDYWGQGTQVTVSS , thanks.
low polyreactivity

###

# test.description: yeast display, Sf9 membrane polyspecificity reagent, FACS + sequencing; frameworks hold sequencing errors
measured.parameter: polyreactivity (PSR sort gate)

The following sequences have reported results that may help.
{"biosequence": "QVQLVESGGGLVQAGGSLRLSCAASGSIFGYYAMGWYRQAPGKERELVAAISSSGASTYYADSVKGRFTISRDNAKNTVYLQMNSLKPEDTAVYYCNADRRYPTRGGYWGQGTQVTVSS", "polyreactivity (PSR sort gate)": "high polyreactivity"}
{"biosequence": "QVRLVETGGGLVQAGGSLRLSCAASGSTFPHYTMGWYIQAHGKERELVAVISRSGRTYYADSVKGRFTISRDNAKNTFYLQMNSLKPEDTAVYYCDVLVGRLVWSYNHWGQVTQVTVSS", "polyreactivity (PSR sort gate)": "high polyreactivity"}
{"biosequence": "QVQLVESGGGLVQAGGSLRLSCAASGSTFWGNAMGWYRQAPGKERELVATITDGGSTNYADSVKGRFTISRDNAKNTVYLQMNSLKPEDTAVYYCNAEEHYNTYVLHFRPYYVRHDYWGQGTQVTVSS", "polyreactivity (PSR sort gate)": "low polyreactivity"}
{"biosequence": "QVQLVESGGGLVQAGGSLRLSCASSGFTSRYVMGWYRQAPGKEMELVASISRSGGSTYYADSVKGRFTISRDNAKNTVYLQMNSLKPEDTAVYYCAADATPTDMDYLGQGTQVTVSS", "polyreactivity (PSR sort gate)": "high polyreactivity"}
{"biosequence": "QVQLVESGGGLVQAGGSLRLSCAASGRTFYKYAMGWYRQAPGKERELVAAISRRGGSTYYADSVKGRFTISRDNAKNTVYLQMNSLKPEDTAVYDCAADPDTKGFYVYRLVRVRYGYWGQGTQVTVSS", "polyreactivity (PSR sort gate)": "high polyreactivity"}

Need polyreactivity (PSR sort gate) of QVQLVESGGGLVQAGGSLRLSCAASGSIFVGYGALGWYRQAHGKERELVAAITSGTSTYYADSVKGRFTISRDNAKNTVYLQINSLKPEDTAVYYCAARGFLKYVTEFDYWGQGTQVTVSS , thanks.
low polyreactivity

Need polyreactivity (PSR sort gate) of QVQLVESGGGLVQAGGSLRLSCAASGSTFGPYAMGWYRQAPGKERELVATIRGSGATTYYADSVKGRFTISRDNAKNTVYLQMHSLKPEDTAVYYCATAYFSGWYNRYGRATSYDYWGQGTQVTVSS , thanks.
high polyreactivity

Need polyreactivity (PSR sort gate) of QVQLVESGGGLVQAGGRLRLSCAASGSIFSYNAMGWYRQAPGKEREVVATISWSGGSTYYADSVKGPFTISRDYAKNTVFLQMNSLKPEDTGGYSCAARKYGQRYRRDYWGQGTQVTVSS , thanks.
low polyreactivity

Need polyreactivity (PSR sort gate) of QVQLVESGGGLVQAGGSLRLSCAASGRIFYSYAMGGYRQAPGQERELVAAIDESDGSTYYADSVKGRFTISRDNATNTVYLQLNSLKPDDTAVYYSAADSLLVLFDYWGQGTQVTVSS , thanks.
low polyreactivity

Need polyreactivity (PSR sort gate) of QVQLVESGGGLVQAGGSLRLSCAASGRTFNYYAMGWSRQAPGKERELVAAITSGGRTNYADSVKGRFTISRDNAKNTVYLQMNSLKPEDTAVYYCATEYYRYRWVGAFRYPVYYWGQGTQVTVSS , thanks.
low polyreactivity

Need polyreactivity (PSR sort gate) of PVQLVESGGGLGQAGGSLRLSCAASGSTFLYSAMGWYRPAPGKERELVAGISASGGSSYYADSVKGRFTISRDYAKNTVYLQMNSLKPEDTAVYYCNATRVVIRHSYDYWGQGTQVTVSS , thanks.
high polyreactivity

Source listed as the nanobody polyreactivity screen of Harvey et al. (2022).
